Data credit: PubChem BioAssay (NCATS)

test: BET inhibitor-based combinations targeting novel dependencies in MECOM-rearranged (r) AML: MV-4-11 cell line (AID 2202233); conditions: MV-4-11 AML viability, CellTiter-Glo luminescence, 48 h; series mostly up to 46 µM; note: nearly all actives have a fitted effect of over 45% in size
Records with an inconclusive call do not appear. The source made the active and inactive calls. Calls come from the whole dose curve; as a rule, active = well fitted inhibition curve with a large enough effect; inconclusive = small, poorly fitted or top-dose-only effect; inactive = no such curve, though single readings can be large or run the other way.
Labels: true (1) (active), false (0) (inactive)

# COMPOUND, DISCRETE LABEL
records = [
    ("CCCCC(=O)OCC(=O)[C@]1(O)Cc2c(O)c3c(c(O)c2[C@@H](O[C@H]2C[C@H](NC(=O)C(F)(F)F)[C@H](O)[C@H](C)O2)C1)C(=O)c1c(OC)cccc1C3=O", "true (1)"),
    ("CC1c2cccc(O)c2C(O)=C2C(=O)C3(O)C(O)=C(C(N)=O)C(=O)C(N(C)C)C3C(O)C21 (stereo not drawn)", "true (1)"),
    ("Cn1cc(-c2cnn3c(N)c(Br)c(C4CCCNC4)nc23)cn1 (stereo not drawn)", "true (1)"),
    ("Nc1nc2c(c(=O)[nH]1)N1CN(c3ccc(C(=O)N[C@@H](CCC(=O)O)C(=O)O)cc3)CC1CN2 (stereo partly drawn)", "true (1)"),
    ("Cc1ccc(-c2nn(C(C)(C)CNC(=O)c3ccncc3)c3ncnc(N)c23)cc1", "true (1)"),
    ("O=C(O)CNC(=O)c1nc(Cl)c2ccccc2c1O", "false (0)"),
    ("CNCCn1c(=O)c2cc(OC)c(OC)cc2c2cnc3cc4c(cc3c21)OCO4", "true (1)"),
    ("COc1ccc2[nH]c3c(c2c1)CCN[C@]31CS[C@@H]2c3c(OC(C)=O)c(C)c4c(c3[C@H](COC1=O)N1[C@@H]2[C@H]2c3c(cc(C)c(OC)c3O)C[C@@H]([C@@H]1O)N2C)OCO4", "true (1)"),
]
